Details: 303.15 K; 101.33 kPa; Liquid; Vibrating tube method
Short version: mass density at least 1000 kg/m3 is TRUE, less is FALSE.

Compound	Assigned Class
CCCCCCn1cc[n+](C)c1C.O=[N+]([O-])c1cn[n-]c1 [1-hexyl-2,3-dimethylimidazolium 4-nitropyrazolide]	TRUE
CCCCCCCCCCCCCC[P+](CCCCCC)(CCCCCC)CCCCCC.O=S(=O)([N-]S(=O)(=O)C(F)(F)F)C(F)(F)F	TRUE
CCCCCCCCCCCCCC[P+](CCCCCC)(CCCCCC)CCCCCC.O=[N+]([O-])c1c[n-]cn1 [trihexyl(tetradecyl)phosphonium 4-nitroimidazolide]	FALSE

// switching to the query compound
Q) Confirm if mass density reported for the compound CCCCCCCCCCCCCC[P+](CCCCCC)(CCCCCC)CCCCCC.N#Cc1nc[n-]c1C#N [trihexyl(tetradecyl)phosphonium 4,5-dicyanoimidazolide] is 1000 kg/m3 or above.
A) FALSE

* * *

Details: 288.15 K; 101.33 kPa; Liquid; Vibrating tube method
Property: mass density (kg/m3)
The response must be a number in kg/m3 with no trailing unit.

Reference set, count: 3
Compound	Unit Of Measure	Reading
CCCC[n+]1cccn1C.O=S(=O)([N-]S(=O)(=O)C(F)(F)F)C(F)(F)F [1-butyl-2-methylpyrazolium bis(trifluoromethylsulfonyl)imide]	kg/m3	1460.7
CCCCCCCC[P+](CC)(CC)CC.O=S(=O)([N-]S(=O)(=O)C(F)(F)F)C(F)(F)F [triethyloctylphosphonium bis(trifluoromethylsulfonyl)imide]	kg/m3	1252.2
CCC=Cn1cc[n+](C)c1C.O=[N+]([O-])c1cn[n-]c1 [1-but-1-enyl-2,3-dimethylimidazolium 4-nitropyrazolide]	kg/m3	1187.7

Note: attention shifts to another entry.
Q) Assign mass density to the following record: CCCCCCCCCCCCCC[P+](CCCCCC)(CCCCCC)CCCCCC.O=[N+]([O-])c1cn[n-]c1 [trihexyl(tetradecyl)phosphonium 4-nitropyrazolide]
A) 945.6

* * *

Details: 293.15 K; 101.33 kPa; Liquid; Cone and plate viscometry
// label = Fulfilled if viscosity is not less than 1000 mPa·s, otherwise Not fulfilled

// below: answered compounds
Compound	Assigned Class
CCCCCCCC[P+](CC)(CC)CC.O=[N+]([O-])c1c[n-]cn1 [triethyloctylphosphonium 4-nitroimidazolide]	Not fulfilled
CCCCCCCCCCCCCC[P+](CCCCCC)(CCCCCC)CCCCCC.Clc1nc[n-]c1Cl [trihexyl(tetradecyl)phosphonium 4,5-dichloroimidazolide]	Fulfilled
CCCCCC[n+]1ccn(C)c1.O=S(=O)([N-]S(=O)(=O)C(F)(F)F)C(F)(F)F	Not fulfilled
CC(=O)[O-].CCCCCCn1cc[n+](C)c1 [3-hexyl-1-methylimidazolium acetate]	Fulfilled
CCCCCCn1cc[n+](C)c1.O=[N+]([O-])c1cn[n-]c1 [1-hexyl-3-methylimidazolium 4-nitropyrazolide]	Not fulfilled
CCCC[S+]1CCCCC1.O=S(=O)([N-]S(=O)(=O)C(F)(F)F)C(F)(F)F [1-butylthianium bis(trifluoromethylsulfonyl)imide]	Not fulfilled

Q) Does the reported viscosity for CCCCCCCCCC[P+](CC)(CC)CC.O=[N+]([O-])c1cn[n-]c1 [decyltriethylphosphonium 4-nitropyrazolide] fall at or above the 1000 mPa·s mark?
A) Not fulfilled

Q) For this compound, is measured viscosity 1000 mPa·s or higher? CCCC[P+](CC)(CC)CC.O=[N+]([O-])c1cn[n-]c1 [butyltriethylphosphonium 4-nitropyrazolide]
A) Not fulfilled

Q) viscosity >= 1000 mPa·s for CC(=O)[O-].CCCCCCCCCCCCCC[P+](CCCCCC)(CCCCCC)CCCCCC [trihexyl(tetradecyl)phosphonium acetate] ?
A) Not fulfilled
